# Experimental target: Perilipin-1 (Homo sapiens) + 1-acylglycerol-3-phosphate O-acyltransferase ABHD5 (Homo sapiens) (UniProt O60240+Q8WTS1)
# Procedure summary: ABHD5-PLIN1 binding inhibitors, late-stage follow-up, counter-screen for ABHD5-PLIN5 interaction inhibitor project, biochemical, luminescence, dose response (AID 651766)
Calls of active or inactive are those of the source. How the calls were made is not given here.
Give one outcome, nothing more. List: 1.0 for active, 0.0 for inactive

Examples with answers:
[
  {
    "Compound": "CC1CCN(S(=O)(=O)c2ccc(NC(=O)Cc3ccccc3)cc2)CC1",
    "Class label": 1.0
  },
  {
    "Compound": "Cc1cc(C)c(NC(=O)CN2CCN3CCCC3C2)c(C)c1 (stereo not drawn)",
    "Class label": 0.0
  },
  {
    "Compound": "Cc1cc(C)c(NC(=O)C[N+](C)(C)CC(O)COc2cccc3ccccc23)c(C)c1 (stereo not drawn)",
    "Class label": 1.0
  },
  {
    "Compound": "CCCNC(=O)Nc1ccc2c(c1)N(C)C(=O)c1ccccc1S2",
    "Class label": 1.0
  },
  {
    "Compound": "CN(C)CCOC1(Cc2ccc(F)cc2)CCC(C(C)(C)C)CC1 (stereo not drawn)",
    "Class label": 0.0
  }
]

Check the results log: what was the call for Cc1nc2c(o1)CCc1ccccc1C2N1CCN(C)CC1 (stereo not drawn) ? 1.0

Check the results log: what was the call for CC(=O)Nc1ccc(S(=O)(=O)N2c3ccc(F)cc3CCC2C)cc1 (stereo not drawn) ? 1.0

Check the results log: what was the call for CC1=CC(C)(C)Nc2ccc(OC(=O)C(C)N3C(=O)c4ccccc4C3=O)cc21 (stereo not drawn) ? 1.0

Check the results log: what was the call for `CCCCOC(=O)Nc1cc(C(=O)OC)ccc1C(=O)OC` ? 1.0

Check the results log: what was the call for `COc1cc(OC)cc(C(=O)NC(=S)N(Cc2ccccc2)C(C)C)c1` ? 1.0

Check the results log: what was the call for `CCN(CC)CCOCCOC(=O)C1(c2ccccc2)CCCC1` ? 1.0

Check the results log: what was the call for `CCN(CC)CCNC(=O)c1ccc(NC(=O)c2cn(-c3ccccc3)nc2-c2cccs2)cc1` ? 0.0

Check the results log: what was the call for CC1Sc2ccc(S(=O)(=O)N3CCC(C(=O)NCc4ccc(Cl)cc4)CC3)cc2NC1=O (stereo not drawn) ? 1.0

###

# Experimental target: Perilipin-1 (Homo sapiens) + 1-acylglycerol-3-phosphate O-acyltransferase ABHD5 (Homo sapiens) (UniProt O60240+Q8WTS1)
# Procedure summary: ABHD5-PLIN1 binding inhibitors, late-stage follow-up, counter-screen for ABHD5-PLIN5 interaction inhibitor project, biochemical, luminescence, dose response (AID 651766)
The source made the active and inactive calls. No rule for the calls is given here.
Give one outcome, nothing more. List: Y = active, N = inactive

Examples with answers:
[
  {
    "Molecule": "CCOC(=O)c1c(NC(C)=O)sc2c1CCC(C=O)=C2Sc1ccccc1",
    "Class label": "Y"
  },
  {
    "Molecule": "CCN(CC)CCOc1ccc(/C(=C(/Cl)c2ccccc2)c2ccccc2)cc1",
    "Class label": "Y"
  },
  {
    "Molecule": "C=C[C@]1(C)C[C@@H](OC(=O)CSCCN(CC)CC)[C@]2(C)C(C)CC[C@]3(CCC(=O)[C@H]32)[C@@H](C)[C@@H]1O (stereo partly specified)",
    "Class label": "N"
  },
  {
    "Molecule": "O=c1[nH]c(C2CCN(S(=O)(=O)c3ccc(F)cc3)CC2)nc2c1nnn2Cc1ccc2c(c1)OCCO2",
    "Class label": "Y"
  },
  {
    "Molecule": "CC(C)c1ccc(N2C=Nc3ccc(C(C)C)cc3C2)cc1",
    "Class label": "Y"
  },
  {
    "Molecule": "COc1ccc(C)c2sc(N(CCN(C)C)C(=O)/C=C/c3cccs3)nc12",
    "Class label": "Y"
  },
  {
    "Molecule": "CN(C)CCCN(C(=O)CCc1ccccc1)c1nc2ccc(Br)cc2s1",
    "Class label": "Y"
  },
  {
    "Molecule": "CCOc1cc(N)c(Cl)cc1C(=O)NCC1CN(Cc2ccc(F)cc2)CCO1 (stereo unspecified)",
    "Class label": "Y"
  }
]

Check the results log: what was the call for `FC(F)(F)c1cccc(NC(=S)N(CCCN2CCCC2)Cc2cccn2Cc2ccc(Cl)cc2)c1` ? Y

Check the results log: what was the call for `CCCCNC(=O)Nc1ccc2c(c1)N(C)C(=O)c1ccccc1S2` ? Y

Check the results log: what was the call for CCN(CC)CCC(C)OC(c1ccccc1)c1ccccc1 (stereo unspecified) ? Y
